biological target: Estrogen receptor (Homo sapiens); test: Antagonist activity at ER-alpha (unknown origin) transfected in HEK293T cells assessed as inhibition of transcriptional activity after 24 hrs by luciferase reporter gene assay relative to 17-beta estradiol; type: cell-based; conditions: HEK-293T
observed.property: Efficacy (%)

# compound, Efficacy [%]
data = [
    ("COc1cccc(OS(=O)(=O)C2CC3OC2C(c2ccc(NC(=O)CCCCCCC(=O)O)cc2)=C3c2ccc(O)cc2)c1 (racemic)", 87),
    ("O=C(O)CCCCCCC(=O)Nc1ccc(C2=C(c3ccc(O)cc3)C3CC(S(=O)(=O)Oc4ccc(F)cc4)C2O3)cc1 (racemic)", 99),
]

[I] O=C(O)CCCCCCC(=O)Nc1cccc(OS(=O)(=O)C2CC3OC2C(c2ccc(O)cc2)=C3c2ccc(O)cc2)c1 (centres undefined)
[II] O=C(O)CCCCCCC(=O)Nc1ccc(C2=C(c3ccc(O)cc3)C3CC(S(=O)(=O)Oc4ccc5ccccc5c4)C2O3)cc1 (centres undefined)
Inquiry: Which item exceeds the other in Efficacy, I or II ? In your reply, give the label of the chosen option.
Reply text: I
(I: 122%, II: 45%)
